Assay Text: AUC in rat at 10 mg/kg
Assay type: ADME, organism-based
Design: dose 10 mg/kg
Condition Description: plasma
Readout Label: AUC (µM·h)
The reply should contain only the number, in µM·h.

Given the molecule CC(C)(C)NC(=O)N[C@H](C(=O)N1C[C@H]2[C@@H]([C@H]1C(=O)NC(CC1CCC1)C(=O)C(N)=O)C2(C)C)C(C)(C)C (stereo partly specified) , what is its reported AUC?
1.52

---

Assay Text: Bioavailability in monkey at 3 mg/kg
Type: ADME, organism-based, Macaca mulatta
Condition Description: rhesus monkey, in vivo
Readout Label: bioavailability (%)
The reply should contain only the number, in %.

Given the compound CC(C)(C)NC(=O)N[C@H](C(=O)N1C[C@H]2[C@@H]([C@H]1C(=O)NC(CC1CCC1)C(=O)C(N)=O)C2(C)C)C(C)(C)C (stereo partly specified) , what is its reported bioavailability?
4

# credit: ChEMBL document CHEMBL1156149
